All figures here come from PubChem BioAssay (NCI).

system: SW-620 colon; assay: NCI tumour cell line growth inhibition, 48 h; in the data active means GI50 below about 0.43 µM; inactive means the rest
Possible outcomes: class 1 (active), class 0 (inactive)

>>> label("COc1ccc(/C(C)=C(\\c2ccc(Cl)cc2)c2ccc(OCCN3CCCC3)cc2)cc1")
"class 0"
>>> label("COc1cc(-c2cc(-c3ccc(N(C)C)cc3)nc(N3CCOCC3)c2C#N)cc(OC)c1OC")
"class 0"
>>> label("COc1ccc(/C=C/c2c(C(=O)/C=C/c3ccc(Cl)cc3)c(C)nc3ccccc23)cc1")
"class 0"
>>> label("CCSc1oc(-c2ccccc2)nc1[P+](c1ccccc1)(c1ccccc1)c1ccccc1")
"class 1"
>>> label("O=C(/C=C/c1ccc(C(F)(F)F)cc1)c1ccc(Nc2nc(NCCO)nc(NCCO)n2)cc1")
"class 0"
>>> label("COc1ccc(-c2oc(=O)ccc2C#Cc2cc(OC)c(OC)c(OC)c2)cc1O")
"class 0"
>>> label("N#Cc1c(NC(=O)c2ccccc2)sc2c1CCC(=O)C2")
"class 0"
>>> label("CC(=O)Oc1ccc(OC(C)=O)c2ccccc12")
"class 0"
>>> label("C=C(C=O)C1CC(=O)C(C(=O)OC)[C@@H]2O[C@@](C)(CC2=O)C[C@@H]2OC(=O)[C@]3(O[C@@H]23)[C@@H](C(=O)OC)C1 (some centres undefined)")
"class 0"

* * *

tested on: HL-60(TB) leukemia; experiment: NCI tumour cell line growth inhibition, 48 h; in the data active means GI50 below about 0.43 µM; inactive means the rest
Possible outcomes: y for active, n for inactive

>>> label("Cc1c[nH]c2c1C13CC1CN(C(=O)c1cc4cc(NC(=O)c5cc6ccccc6o5)ccc4[nH]1)C3=CC2=O (stereo unspecified)")
"n"
>>> label("C=C1CCC2C3(C)COC(c4ccc(NC(C)=O)cc4)OC3CCC2(C)C1C/C=C1/C(=O)OCC1O (stereo unspecified)")
"n"
>>> label("CN1/C(=C\\C(I)C(I)C2=[N+](C)c3ccccc3C2(C)C)C(C)(C)c2ccccc21 (stereo unspecified)")
"y"
>>> label("Nc1ncnc2c1c(C(F)(F)F)cn2[C@@H]1O[C@H](CO)[C@@H](O)[C@H]1O")
"y"
>>> label("O=C(c1ccccc1Nc1ccnc(C(F)(F)F)c1)N1CCN(c2cccc(Cl)c2)CC1")
"n"
>>> label("C=C(CN1CCN(c2ccccc2OC)CC1)c1ccc(C(=O)Nc2ccccc2N)cc1")
"n"
>>> label("Cn1nc(C(F)(F)F)c(-c2ccc(Cl)c(C(F)(F)F)c2)c1-c1ccc(OCc2ccc(Cl)cc2)cc1O")
"n"
>>> label("CC(C)C[C@H](NC(=O)[C@H](CCc1ccccc1)NC(=O)CN1CCOCC1)C(=O)N[C@@H](Cc1ccccc1)C(=O)N[C@@H](CC(C)C)C(=O)[C@@]1(C)CO1")
"y"
>>> label("Cc1ccc(Cl)cc1Nc1nc(C(F)(F)F)ccc1C(=O)Nc1cccc(C(F)(F)F)c1")
"n"
>>> label("N#Cc1c(NC(=O)c2ccccc2)sc2c1CCC(=O)C2")
"y"
>>> label("O=C(/C=C/c1ccc(C(F)(F)F)cc1)c1ccc(Nc2nc(NCCO)nc(NCCO)n2)cc1")
"n"

* * *

tested on: MDA-MB-435
Possible outcomes: active, inactive

>>> label("Cl.[Pt].[c-]1ccccc1-c1ccccn1.c1ccc(P(c2ccccc2)C([PH+](c2ccccc2)c2ccccc2)[PH+](c2ccccc2)c2ccccc2)cc1")
"inactive"
>>> label("Nc1ccc(-c2nc3ccc4[nH]ncc4c3c3c2CCCC3)cc1F")
"inactive"
>>> label("O=C1NC(=O)/C(=C/C=C/c2ccccc2)S1")
"inactive"
>>> label("CC1(C)CCC[C@]23C(=O)O[C@](O)(C(=O)C4=C[C@@](C)(/C=C/CCCc5ccc6ccc7cccc8ccc5c6c78)CC[C@@]42O)[C@@H]13")
"active"
